// MIC lookup, one value per entry
Tested on: Aspergillus fumigatus
Test: Antifungal activity against Aspergillus fumigatus
Format: functional
# unit: µM | format: bare number

q: Report MIC for Cc1nc(-c2c[nH]c3cc(F)c(F)cc3c2=O)cs1 please.
a: 921

* * *

System: Candida albicans
Test: Antifungal activity against drug-resistant Candida albicans
Format: functional
Consider the cut-off 600 µM. If the recorded MIC is strictly smaller, the label is 1; if not, the label is 0.

q: Hi there! Is MIC for Nc1nc(-c2c[nH]c3cc(Cl)c(F)cc3c2=O)cs1 below 600 µM, do you know?
a: 1

q: Request: CC(=O)Cn1cc(C(C)=O)c(=O)c2cc(F)c(Cl)cc21
a: 0

q: Request: C/C(Cn1cc(-c2csc(N)n2)c(=O)c2cc(F)cc(F)c21)=N\NC(N)=S
a: 0

q: Request: C/C(Cn1cc(-c2csc(C)n2)c(=O)c2cccc(F)c21)=N\NC(N)=S
a: 0

q: Request: CC(=O)Cn1cc(-c2csc(C)n2)c(=O)c2cc(F)ccc21
a: 0

q: Request: CC(=O)Cn1cc(-c2csc(N)n2)c(=O)c2cc(F)ccc21
a: 1

q: Request: CCOC(=O)c1cn(C/C(C)=N/NC(N)=S)c2cc(Cl)c(F)cc2c1=O
a: 0

q: Request: C/C(Cn1cc(-c2csc(N)n2)c(=O)c2cccc(F)c21)=N\NC(N)=S
a: 0

q: Request: Nc1nc(-c2c[nH]c3c(F)cc(F)cc3c2=O)cs1
a: 1

* * *

Experiment: Hemolytic activity in human RBC assessed as hemolysis ratio at 0.0047 mM measured after 1 hr relative to control
Format: toxicity, cell-based, Erythrocyte
Details: red blood cells (erythrocytes)
PROPERTY LABEL: hemolysis at 1 h, 4.7 µM (%)
# unit: % | format: bare number

q: Report hemolysis at 1 h, 4.7 µM for C/C(Cn1cc(-c2csc(N)n2)c(=O)c2cc(F)c(Cl)cc21)=N\NC(N)=S please.
a: 1.07

* * *

System: Aspergillus fumigatus
Assay: Antifungal activity against Aspergillus fumigatus
Assay type: functional
Consider the cut-off 700 µM. If the recorded MIC is strictly smaller, the label is true; if not, the label is false.

# example entries with known answers
- CC(=O)Cn1cc(-c2csc(C)n2)c(=O)c2cc(F)ccc21: false
- Nc1nc(-c2c[nH]c3ccc(F)cc3c2=O)cs1: true
- CC(=O)Cn1cc(-c2csc(N)n2)c(=O)c2cc(F)ccc21: true
- OC(Cn1cncn1)(Cn1cncn1)c1ccc(F)cc1F: false
- CC(=O)Cn1cc(C(C)=O)c(=O)c2cc(F)c(Cl)cc21: false

Here is another compound to look at.
q: Hi there! Is MIC for Cc1nc(-c2c[nH]c3c(F)cc(F)cc3c2=O)cs1 below 700 µM, do you know?
a: false

* * *

Test system: Staphylococcus aureus
Assay: Antibacterial activity against drug-resistant Staphylococcus aureus by microbroth dilution method
Format: functional
Consider the cut-off 800 µM. If the recorded MIC is strictly smaller, the label is label 1; if not, the label is label 0.

# example entries with known answers
- Cc1nc(-c2c[nH]c3c(F)cc(F)cc3c2=O)cs1: label 0
- CCOC(=O)c1cn(C/C(C)=N/NC(N)=S)c2cc(Cl)c(F)cc2c1=O: label 1
- C/C(Cn1cc(-c2csc(C)n2)c(=O)c2cc(F)c(F)cc21)=N\NC(N)=S: label 0
- CC(=O)Cn1cc(-c2csc(C)n2)c(=O)c2cc(F)ccc21: label 0

q: Hi there! Is MIC for CC(=O)Cn1cc(-c2csc(N)n2)c(=O)c2cc(F)c(Cl)cc21 below 800 µM, do you know?
a: label 1

* * *

Assay: Hemolytic activity in human RBC assessed as hemolysis ratio at 0.0189 mM measured after 1 hr relative to control
Type: toxicity, cell-based, Erythrocyte
Conditions: red blood cells (erythrocytes)
PROPERTY LABEL: hemolysis at 1 h, 18.9 µM
Could you kindly put the unit after your number?

q: Report hemolysis at 1 h, 18.9 µM for C/C(Cn1cc(-c2csc(N)n2)c(=O)c2cc(F)c(Cl)cc21)=N\NC(N)=S please.
a: 2.21%

* * *

Tested on: Aspergillus fumigatus
Experiment: Antifungal activity against Aspergillus fumigatus
Format: functional
PROPERTY LABEL: MIC (µM)
# unit: µM | format: bare number

* CC(=O)Cn1cc(-c2csc(C)n2)c(=O)c2cccc(F)c21 | 1620
* C/C(Cn1cc(-c2csc(C)n2)c(=O)c2cccc(F)c21)=N\NC(N)=S | 658
* CC(=O)Cn1cc(-c2csc(N)n2)c(=O)c2cccc(F)c21 | 404

q: Report MIC for CCOC(=O)c1cn(C/C(C)=N/NC(N)=S)c2cc(Cl)c(F)cc2c1=O please.
a: 322

q: Request: Cc1nc(-c2c[nH]c3c(F)cccc3c2=O)cs1
a: 492

q: Request: C/C(Cn1cc(-c2csc(N)n2)c(=O)c2cccc(F)c21)=N\NC(N)=S
a: 1310

q: Request: CC(=O)Cn1cc(-c2csc(C)n2)c(=O)c2cc(F)c(F)cc21
a: 766

q: Request: C/C(Cn1cc(-c2csc(C)n2)c(=O)c2cc(F)cc(F)c21)=N\NC(N)=S
a: 629

q: Request: C/C(Cn1cc(-c2csc(N)n2)c(=O)c2cc(F)c(F)cc21)=N\NC(N)=S
a: 314

q: Request: C/C(Cn1cc(-c2csc(C)n2)c(=O)c2cc(F)c(Cl)cc21)=N\NC(N)=S
a: 1210

* * *

// MIC lookup, one value per entry
Tested on: Staphylococcus aureus
Test: Antibacterial activity against Staphylococcus aureus ATCC 29213 by microbroth dilution method
Assay type: functional
# unit: µM | format: bare number

Solved cases below.
- C/C(Cn1cc(-c2csc(N)n2)c(=O)c2cc(F)c(Cl)cc21)=N\O: 44
- Nc1nc(Cn2cc(-c3csc(N)n3)c(=O)c3cc(F)c(Cl)cc32)cs1: 20
- Cc1nc(-c2c[nH]c3cc(F)c(F)cc3c2=O)cs1: 921
- Nc1nc(-c2c[nH]c3cc(Cl)c(F)cc3c2=O)cs1: 434
- CCOC(=O)c1cn(C/C(C)=N/NC(N)=S)c2cc(F)c(F)cc2c1=O: 335
- Cc1nc(-c2c[nH]c3c(F)cc(F)cc3c2=O)cs1: 460
- CC(=O)Cn1cc(-c2csc(C)n2)c(=O)c2cc(F)c(Cl)cc21: 366
- C/C(Cn1cc(-c2csc(C)n2)c(=O)c2cc(F)c(F)cc21)=N\NC(N)=S: 1260
- CC(=O)Cn1cc(-c2csc(C)n2)c(=O)c2cccc(F)c21: 810
- C/C(Cn1cc(-c2csc(N)n2)c(=O)c2cccc(F)c21)=N\NC(N)=S: 21

q: Report MIC for Nc1nc(-c2c[nH]c3c(F)cccc3c2=O)cs1 please.
a: 981

q: Request: C/C(Cn1cc(-c2csc(C)n2)c(=O)c2cc(F)c(Cl)cc21)=N\NC(N)=S
a: 605

q: Request: C/C(Cn1cc(-c2csc(C)n2)c(=O)c2cccc(F)c21)=N\NC(N)=S
a: 329

q: Request: CC(=O)Cn1cc(-c2csc(N)n2)c(=O)c2cc(F)ccc21
a: 404

q: Request: CC(=O)Cn1cc(-c2csc(N)n2)c(=O)c2cc(F)c(F)cc21
a: 382

* * *

Test system: Enterococcus faecalis
Assay: Antibacterial activity against drug-resistant Enterococcus faecalis by microbroth dilution method
Format: functional
Consider the cut-off 600 µM. If the recorded MIC is strictly smaller, the label is yes (1); if not, the label is no (0).

• Nc1nc(-c2c[nH]c3cc(F)c(F)cc3c2=O)cs1 = no (0)
• CC(=O)Cn1cc(-c2csc(C)n2)c(=O)c2cc(F)cc(F)c21 = no (0)
• Nc1nc(Cn2cc(-c3csc(N)n3)c(=O)c3cc(F)c(Cl)cc32)cs1 = yes (1)
• CC(=O)Cn1cc(-c2csc(C)n2)c(=O)c2cccc(F)c21 = no (0)
• C/C(Cn1cc(-c2csc(N)n2)c(=O)c2cc(F)c(Cl)cc21)=N\O = yes (1)
• CCn1cc(C(=O)O)c(=O)c2cc(F)c(N3CCNCC3)cc21 = no (0)
• CC(=O)Cn1cc(-c2csc(C)n2)c(=O)c2cc(F)c(F)cc21 = no (0)
• CC(=O)Cn1cc(-c2csc(N)n2)c(=O)c2cc(F)c(Cl)cc21 = yes (1)
• CC(=O)Cn1cc(-c2csc(N)n2)c(=O)c2cccc(F)c21 = yes (1)
• C/C(Cn1cc(-c2csc(N)n2)c(=O)c2cccc(F)c21)=N\NC(N)=S = yes (1)

Here is another compound to look at.
q: Hi there! Is MIC for CCOC(=O)c1cn(C/C(C)=N/NC(N)=S)c2cc(Cl)c(F)cc2c1=O below 600 µM, do you know?
a: no (0)
